Give measured IC50 for each item. Keep answers brief.
Supply the numeric figure in nM, leaving out any unit text.

Summary line: `COc1ccc(S(=O)(=O)N2C[C@H](NC(=O)CCCN)C[C@@H]2C(=O)NO)cc1` , 72 kDa type IV collagenase (Homo sapiens, UniProt P08253), reported IC50 = 302

Response field IC50 (72 kDa type IV collagenase (Homo sapiens, UniProt P08253)) for item `CCCC[C@H](NC(=O)OC(C)(C)C)C(=O)N[C@@H]1C[C@H](C(=O)NO)N(S(=O)(=O)c2ccc(OC)cc2)C1` : 87

Reported IC50 (72 kDa type IV collagenase (Homo sapiens, UniProt P08253)) for entry `COc1ccc(S(=O)(=O)N2C[C@H](NC(=O)CCCNC(=O)OC(C)(C)C)C[C@@H]2C(=O)NO)cc1` is 91

Item `COc1ccc(S(=O)(=O)N2C[C@H](NC(=O)[C@H](CCCCN)NC(=O)OC(C)(C)C)C[C@@H]2C(=O)NO)cc1` was tested on 72 kDa type IV collagenase (Homo sapiens, UniProt P08253); the reported IC50 is 432

Entry `COc1ccc(S(=O)(=O)N2C[C@H](NC(=O)[C@@H](N)CCCCN)C[C@@H]2C(=O)NO)cc1` : IC50 on 72 kDa type IV collagenase (Homo sapiens, UniProt P08253) = 1260

Cited source for all entries: ChEMBL document CHEMBL4665735
